These measurements were taken from patent US12723255B2.

Entries and their Mecoprop Km values follow.
# assay_text: enzyme activity assay at 23° C. with purified enzyme
# Assay type: biochemical
# study_conditions: percentage of wild-type RdpA, set at 100%
reported_endpoint: Mecoprop Km (%)

| molecule | reported_endpoint | scale_unit | result_number |
| --- | --- | --- | --- |
| MON-HT1: engineered oxygenase protein, amino acid sequence SEQ ID NO:14 (protein) MHAALTPLTNKYRFIDVQPLTGVLGAEITGVDLREPLDDSTWNEILDAFHTYQVIYFPGQAITNEQHIAFSRRFGPVDPVPILKSIEGYPEVQMIRREANESSRFIGDDWHTDSTFLDAPPAAVVMRAIEVPEYGGDTGFLSMYSAWETLSPTMQATIEGLNVVHSATKVFGSLYQATNWRFSNTSVKVMDVDAGDRETVHPLVVTHPVTGRRALYCNQVYCQKIQGMTDAESKSLLQFLYEHATKFDFTCRVRWKKDQVLVWDNLCTMHRAVPDYAGKFRYLTRTTVAGDKPSR | Mecoprop Km | % | 142 |
| MON-HT17: engineered oxygenase protein, amino acid sequence SEQ ID NO:51 (protein) MHAALTPLTNKYRFIDVQPLTGVLGAEITGVDLREPLDDSTWNEILDAFHTYQVIYFPGQAITNEQHIAFSRRFGPVDPVPILKSIEGYPEVQMIRREANESSRYIGDDWHADSTFLDAPPAAVVMRAIEVPEYGGDTGFLSMYSAWETLSPTMQATIEGLNVVHSATKVFGSLYQATNWRFSNTSVKVMDVDAGDRETVHPLVVTHPVTGRRALYCNQVYCQKIQGMTDAESKSLLQFLYEHATQFDFTCRVRWKKDQVLVWDNLCTMHRAVPDYAGKFRYLTRTTVAGDKPSR | Mecoprop Km | % | 65 |
| MON-HT13: engineered oxygenase protein, amino acid sequence SEQ ID NO:47 (protein) MHAALTPLTNKYRFIDVQPLTGVLGAEITGVDLREPLDDSTWNEILDAFHTYQVIYFPGQAITNEQHIAFSRRFGPVDPVPILKSIEGYPEVQMIRREANESSRYIGDDWHADSTFLDAPPAAVVMRAIEVPEYGGDTGFLSMYSAWETLSPTMQATIEGLNVVHSATKVFGSLYQATNWRFSGTSVKVMDVDAGDRETVHPLVVTHPVTGRRALYCNQVYCQKIQGMTDAESKSLLQFLYEHATQFDFTCRVRWKKDQVLVWDNLCTMHRAVPDYAGKFRYLTRTTVAGDKPSR | Mecoprop Km | % | 92 |
